Please respond with reported pIC50 for every item in the list.
target: SARS-CoV-2 3CL-protease (Severe acute respiratory syndrome coronavirus 2 (2019-nCoV) (SARS-CoV-2), UniProt P0DTD1); assay: biochemical; details: recombinant SARS-CoV-2 3CL-protease 10 nM, 30 min preincubation; read-out: FRET IC50
pIC50: −log10 of the molar value.

Lookup: # lookup: pIC50 of CC(C)C[C@H]1C(=O)N2C[C@]3(C[C@H]2C#N)C(=O)Nc2ccc(cc23)CCCCCN1C(=O)OCc1ccccc1
Found: > 7.00

Lookup: Param item: CC(C)C[C@H]1C(=O)N2C[C@]3(C[C@H]2C#N)C(=O)Nc2ccc(cc23)CCCCCN1C(=O)c1cc2ccc(C(F)(F)F)cc2[nH]1
Found: 6.00 to 7.00

Lookup: How about CCCC[C@H]1C(=O)N2C[C@]3(C[C@H]2C#N)C(=O)Nc2ccc(cc23)CCCCCN1C(=O)c1cn(-c2cc(F)c(F)cc2F)nn1 ?
Found: > 7.00

Lookup: Moving on to the next compound: CC(C)C[C@H]1C(=O)N2C[C@]3(C[C@H]2C#N)C(=O)Nc2ccc(cc23)CCCCCN1C(=O)c1cnn(-c2ccc(Cl)cc2Cl)c1
Found: > 7.00

Lookup: And N#C[C@@H]1C[C@]23CN1C(=O)[C@H](Cc1ccccc1)N(C(=O)c1cn(-c4ccc(F)cc4)nn1)CCCCCc1ccc(c2c1)NC3=O ?
Found: > 7.00

Lookup: Subsequent entry: N#C[C@@H]1C[C@]23CN1C(=O)[C@H](Cc1ccccc1)N(C(=O)c1cc4c(F)cc(F)cc4[nH]1)CCCCCc1ccc(c2c1)NC3=O
Found: > 7.00
